- Target Of Assay: UniProtKB P47820
- Sequence (whole entry): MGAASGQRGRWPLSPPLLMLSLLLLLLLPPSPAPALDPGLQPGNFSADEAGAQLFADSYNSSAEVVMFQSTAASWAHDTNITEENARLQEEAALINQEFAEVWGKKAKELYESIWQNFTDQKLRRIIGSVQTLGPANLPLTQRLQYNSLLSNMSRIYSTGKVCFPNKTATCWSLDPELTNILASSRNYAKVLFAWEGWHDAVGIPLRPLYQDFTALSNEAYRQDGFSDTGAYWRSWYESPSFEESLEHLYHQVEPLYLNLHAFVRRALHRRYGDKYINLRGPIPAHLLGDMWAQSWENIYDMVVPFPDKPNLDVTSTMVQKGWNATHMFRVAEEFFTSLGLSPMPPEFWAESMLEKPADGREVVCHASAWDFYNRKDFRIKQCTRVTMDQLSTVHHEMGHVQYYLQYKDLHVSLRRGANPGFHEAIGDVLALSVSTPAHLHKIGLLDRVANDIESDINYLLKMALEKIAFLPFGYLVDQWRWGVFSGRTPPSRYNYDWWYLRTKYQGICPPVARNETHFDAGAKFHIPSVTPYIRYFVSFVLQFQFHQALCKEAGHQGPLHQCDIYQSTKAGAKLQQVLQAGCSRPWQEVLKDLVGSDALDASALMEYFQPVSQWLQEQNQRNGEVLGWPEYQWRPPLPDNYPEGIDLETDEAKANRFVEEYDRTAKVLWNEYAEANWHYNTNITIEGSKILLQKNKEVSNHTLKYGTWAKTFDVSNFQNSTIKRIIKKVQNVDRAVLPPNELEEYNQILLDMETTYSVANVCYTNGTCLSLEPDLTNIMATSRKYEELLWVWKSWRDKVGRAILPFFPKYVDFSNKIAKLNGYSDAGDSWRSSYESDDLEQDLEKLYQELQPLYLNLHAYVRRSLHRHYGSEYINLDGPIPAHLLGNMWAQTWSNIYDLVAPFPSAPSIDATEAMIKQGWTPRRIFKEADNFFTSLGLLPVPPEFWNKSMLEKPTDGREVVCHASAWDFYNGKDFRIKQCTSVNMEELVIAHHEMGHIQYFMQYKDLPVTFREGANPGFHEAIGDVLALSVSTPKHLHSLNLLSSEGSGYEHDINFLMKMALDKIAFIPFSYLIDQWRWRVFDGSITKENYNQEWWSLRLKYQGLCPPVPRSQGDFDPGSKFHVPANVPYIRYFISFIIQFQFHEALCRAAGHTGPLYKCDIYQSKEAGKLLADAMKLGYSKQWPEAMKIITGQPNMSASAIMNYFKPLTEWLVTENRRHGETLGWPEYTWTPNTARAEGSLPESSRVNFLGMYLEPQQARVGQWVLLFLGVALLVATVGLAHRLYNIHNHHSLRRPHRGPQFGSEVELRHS
- Protocol Text: Compound was tested for plasma inhibition of Angiotensin I converting enzyme activity in the conscious rat. Expressed as Inhibition of AI pressor response at 2 hr at a dose of 13.1 mg/kg po
- Assay type: organism-based
- Set-up: dose 13.1 mg/kg
Parameter Measured: inhibition (%)
One number for each entry, in %.

Study these solved cases before continuing.
[
  {
    "Structure": "CCOC(=O)[C@H](Cc1ccc(OC(=O)CC)cc1)NC(=O)C1(NC(=O)[C@H](SC(C)=O)C(C)C)CCCC1",
    "Unit Spec": "%",
    "inhibition": 35
  },
  {
    "Structure": "CCCCOC(=O)[C@H](Cc1ccc(O)cc1)NC(=O)C1(NC(=O)[C@H](SC(=O)COC)C(C)C)CCCC1",
    "Unit Spec": "%",
    "inhibition": 75
  },
  {
    "Structure": "COc1ccc(C[C@H](NC(=O)C2(NC(=O)[C@H](SC(C)=O)C(C)C)CCCC2)C(=O)OCc2ccccc2)cc1",
    "Unit Spec": "%",
    "inhibition": 84
  },
  {
    "Structure": "CCCCOC(=O)[C@H](Cc1ccc(O)cc1)NC(=O)C1(NC(=O)[C@H](SC(=O)CCC)C(C)C)CCCC1",
    "Unit Spec": "%",
    "inhibition": 85
  },
  {
    "Structure": "CC(=O)S[C@@H](C(=O)NC1(C(=O)N[C@@H](Cc2ccc(O)cc2)C(=O)OCc2ccccc2)CCCC1)C(C)C",
    "Unit Spec": "%",
    "inhibition": 74
  },
  {
    "Structure": "CCCCOC(=O)[C@H](Cc1ccc(O)cc1)NC(=O)C1(NC(=O)[C@H](SC(=O)C(C)C)C(C)C)CCCC1",
    "Unit Spec": "%",
    "inhibition": 16
  }
]

Switching to the query record.
**Q:** Determine from records and report inhibition for CCCCCCOC(=O)[C@H](Cc1ccc(O)cc1)NC(=O)C1(NC(=O)[C@H](SC(C)=O)C(C)C)CCCC1
**A:** 78

---

- Target Of Assay: Angiotensin-converting enzyme (Rattus norvegicus)
- Protocol Text: Compound was tested for plasma inhibition of Angiotensin I converting enzyme activity in the conscious rat. Expressed as Inhibition of AI pressor response at 6 hr at a dose of 12.8 mg/kg po
- Format: organism-based
- Design: dose 12.8 mg/kg
Consider the following molecules; for each one, report its inhibition.
Give bare numbers, in %.

Study these solved cases before continuing.
[
  {
    "Structure": "CCOC(=O)[C@H](Cc1ccc(OC(C)=O)cc1)NC(=O)C1(NC(=O)[C@H](SC(C)=O)C(C)C)CCCC1",
    "Value Reported": 16
  },
  {
    "Structure": "CCCCOC(=O)[C@H](Cc1ccc(OC)cc1)NC(=O)C1(NC(=O)[C@H](SC(C)=O)C(C)C)CCCC1",
    "Value Reported": 58
  },
  {
    "Structure": "CCOC(=O)[C@H](Cc1ccc(O)cc1)NC(=O)C1(NC(=O)[C@H](SC(=O)C(C)(C)C)C(C)C)CCCC1",
    "Value Reported": 19
  }
]

For each of the items listed, what is its inhibition?
1. CCCCOC(=O)[C@H](Cc1ccc(O)cc1)NC(=O)C1(NC(=O)[C@H](SC(=O)CC)C(C)C)CCCC1
2. CCOC(=O)[C@H](Cc1ccc(O)cc1)NC(=O)C1(NC(=O)[C@H](SC(=O)CN(C)C)C(C)C)CCCC1

**A:**
[39, 18]
